# measurement_target: human recombinant adrenergic α2A receptor (Homo sapiens, UniProt P08913)
# Construct: expressed in transfected cells; host or cells: insect Sf9 cells
# Sequence (P08913 1-465): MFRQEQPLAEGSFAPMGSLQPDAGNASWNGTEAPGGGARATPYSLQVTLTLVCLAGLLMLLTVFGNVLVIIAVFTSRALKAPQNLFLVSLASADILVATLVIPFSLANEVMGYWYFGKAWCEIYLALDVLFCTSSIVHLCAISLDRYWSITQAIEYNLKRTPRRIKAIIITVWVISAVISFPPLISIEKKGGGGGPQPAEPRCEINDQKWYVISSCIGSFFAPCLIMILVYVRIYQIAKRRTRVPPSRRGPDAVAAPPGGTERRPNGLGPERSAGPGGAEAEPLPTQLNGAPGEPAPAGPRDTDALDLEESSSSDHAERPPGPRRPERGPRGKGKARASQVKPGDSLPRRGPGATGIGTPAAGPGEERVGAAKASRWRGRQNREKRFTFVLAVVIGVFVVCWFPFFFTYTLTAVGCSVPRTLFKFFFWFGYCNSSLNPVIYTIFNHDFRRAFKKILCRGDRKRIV
# test_details: Radioligand binding, adrenergic α2A ([3H]MK-912)
# experimental_context: compound at 0.1 μM; [3H]MK-912; repeat assays, each datapoint shown; 0.1 µM
Classification field: Y = Percentage inhibition of ligand binding, Adrenergic α2A at or over 10%; N = Percentage inhibition of ligand binding, Adrenergic α2A under 10%.

1) CN1CCc2c(n(CC(O)c3ccncc3)c3ccc(Cl)cc23)CC1 (single isomer, unassigned) [15a] :: N
2) COc1cccc2c3c(n(CC(O)c4ccncc4)c12)CCN(C)C3 (single isomer, unassigned) [44a] :: Y
3) COc1ccc(C(O)Cn2c3c(c4cc(C)ccc42)CN(C)CC3)cn1 (single isomer, unassigned) [51a] :: Y
4) Cc1ccc2c(c1)c1c(n2CC(O)c2ccc(F)cc2)CCN(C)C1 (single isomer, unassigned) [30b] :: Y

Please check the record Cc1cnc2c(c1)c1c(n2CC(O)c2ccncc2)CCN(C)C1 (single isomer, unassigned) [55a] and state if its Percentage inhibition of ligand binding, Adrenergic α2A is at or above 10%.
Y

Please check the record Cc1ccc2c(c1)c1c(n2CC2(c3ccccc3)OCCO2)CCN(C)C1 and state if its Percentage inhibition of ligand binding, Adrenergic α2A is at or above 10%.
Y

Please check the record Cc1ccc2c(c1)c1c(n2CC(O)c2ccncc2)CC2CCCN2C1 (single isomer, unassigned) [76a] and state if its Percentage inhibition of ligand binding, Adrenergic α2A is at or above 10%.
Y

Please check the record Cc1ccc2c(c1)c1c(n2CC(O)c2ccc(C(=O)N(C)C)cc2)CCN(C)C1 (single isomer, unassigned) [52a] and state if its Percentage inhibition of ligand binding, Adrenergic α2A is at or above 10%.
N

Please check the record OC(Cn1c2c(c3cc(Cl)ccc31)CNCC2)c1ccncc1 (single isomer, unassigned) [10b] and state if its Percentage inhibition of ligand binding, Adrenergic α2A is at or above 10%.
Y

Please check the record CN1CCc2c(n(CC(O)c3ccncc3)c3ccc(Cl)cc23)C1 (single isomer, unassigned) [41b] and state if its Percentage inhibition of ligand binding, Adrenergic α2A is at or above 10%.
N

Please check the record Cc1ccc2c(c1)c1c(n2CC(C)(O)c2ccccn2)CN(C)CC1 (single isomer, unassigned) [16b] and state if its Percentage inhibition of ligand binding, Adrenergic α2A is at or above 10%.
N

Please check the record Cc1ccc2c(c1)c1c(n2CC(O)c2cccnc2)CCNC1 (stereo not shown) [compound 9] and state if its Percentage inhibition of ligand binding, Adrenergic α2A is at or above 10%.
N

Please check the record CN1CCc2c(n(CC(O)c3ccncc3)c3ccc(Cl)cc23)CC1 (single isomer, unassigned) [15b] and state if its Percentage inhibition of ligand binding, Adrenergic α2A is at or above 10%.
Y

Please check the record Cc1cnc2c(c1)c1c(n2CC(O)c2ccncc2)CCNC1 (stereo not shown) [compound 58] and state if its Percentage inhibition of ligand binding, Adrenergic α2A is at or above 10%.
N

Please check the record Cc1ccc2c(c1)c1c(n2CC(O)c2cccnc2)CCN(CCO)C1 (single isomer, unassigned) [21b] and state if its Percentage inhibition of ligand binding, Adrenergic α2A is at or above 10%.
N

Please check the record CN1CCc2c(c3cc(C(F)(F)F)ccc3n2CC(O)c2cccnc2)C1 (single isomer, unassigned) [59b] and state if its Percentage inhibition of ligand binding, Adrenergic α2A is at or above 10%.
Y

Please check the record Cc1ccc2c(c1)c1c(n2CC(C)(O)c2ccncc2)CN(C)CC1 (single isomer, unassigned) [19b] and state if its Percentage inhibition of ligand binding, Adrenergic α2A is at or above 10%.
N

Please check the record OC(Cn1c2c(c3cccnc31)CN1CCCC1C2)c1ccncc1 (single isomer, unassigned) [37b] and state if its Percentage inhibition of ligand binding, Adrenergic α2A is at or above 10%.
N

Please check the record Cc1ccc2c(c1)c1c(n2CC(O)c2cc[n+]([O-])cc2)CCN(C)C1 (stereo not shown) [69b] and state if its Percentage inhibition of ligand binding, Adrenergic α2A is at or above 10%.
N

Please check the record Cc1cnc2c(c1)c1c(n2CC(O)c2ccncc2)CCNC1 (single isomer, unassigned) [58a] and state if its Percentage inhibition of ligand binding, Adrenergic α2A is at or above 10%.
N

Please check the record Cc1ccc2c(c1)c1c(n2CC(O)c2cccnc2)CN(C)CC1 (single isomer, unassigned) [43b] and state if its Percentage inhibition of ligand binding, Adrenergic α2A is at or above 10%.
Y

Please check the record CN1CCc2c(c3cc(Cl)ccc3n2CC(O)c2cccnc2)C1 (single isomer, unassigned) [7a] and state if its Percentage inhibition of ligand binding, Adrenergic α2A is at or above 10%.
N
